The origin of these recorded values is patent US20150105252A1.

- System: crabgrass, large
- protocol: Test C postemergence
- Assay type: in vivo, Digitaria sanguinalis
- setup_conditions: postemergence, 250 g ai/ha; scale 0 to 100 (0 no effect, 100 complete control)
# Plant response rating, Crabgrass, Large values compiled below
Quick one: just the number, no unit, thanks!

Sample records with Plant response rating, Crabgrass, Large:
[
  {
    "smiles_str": "CCOc1cc(C(=O)NOC(C)C)nn1Cc1ccnc(C(F)(F)F)c1",
    "tested_system": "crabgrass, large",
    "measurement_name": "Plant response rating, Crabgrass, Large",
    "experimental_result": 45
  },
  {
    "smiles_str": "CCc1cc(C(=O)NCC(F)(F)F)nn1Cc1ccnc(SC(F)(F)F)c1",
    "tested_system": "crabgrass, large",
    "measurement_name": "Plant response rating, Crabgrass, Large",
    "experimental_result": 55
  },
  {
    "smiles_str": "CCCNC(=O)c1cc(CC)n(Cc2nc(C(F)(F)F)nn2C)n1",
    "tested_system": "crabgrass, large",
    "measurement_name": "Plant response rating, Crabgrass, Large",
    "experimental_result": 45
  },
  {
    "smiles_str": "CCCNC(=O)c1cc(CCF)n(Cc2ccnc(C(F)(F)F)c2)n1",
    "tested_system": "crabgrass, large",
    "measurement_name": "Plant response rating, Crabgrass, Large",
    "experimental_result": 10
  },
  {
    "smiles_str": "CCc1cc(C(=O)NOC(C)C)nn1Cc1cccc(OC(F)(F)F)c1",
    "tested_system": "crabgrass, large",
    "measurement_name": "Plant response rating, Crabgrass, Large",
    "experimental_result": 45
  }
]

Please examine the following record next.
Q: Give recorded Plant response rating, Crabgrass, Large with crabgrass, large for the following compound: CCc1cc(C(=O)NC2CC2)nn1Cc1ccnc(Br)c1
A: 10

###

# Pigweed plant response rating (0 to 100 scale) values compiled below
- Tested on: pigweed
- protocol: Test A preemergence
- Type: in vivo, Amaranthus retroflexus
- setup_conditions: preemergence, 125 g ai/ha, visual injury approx. 10 days after treatment
Quick one: just the number, no unit, thanks!

Sample records with Pigweed plant response rating (0 to 100 scale):
[
  {
    "smiles_str": "CCc1cc(C(=O)NCC(F)(F)F)nn1Cc1ccnc(SC(F)(F)F)c1",
    "tested_system": "pigweed",
    "experimental_result": 100
  },
  {
    "smiles_str": "CCCCc1cc(C(=O)NOCC)nn1Cc1ccnc(C(F)(F)F)c1",
    "tested_system": "pigweed",
    "experimental_result": 100
  }
]

Q: For the compound CCCc1cc(C(=O)NOC(C)C)nn1Cc1cc(C(F)(F)F)nn1C , what Pigweed plant response rating (0 to 100 scale) is on record?
A: 100

Q: For the compound CCCc1cc(C(=O)NC2CC2)nn1Cc1cc(C(F)(F)F)nn1C , what Pigweed plant response rating (0 to 100 scale) is on record?
A: 100

Q: For the compound O=C(NC1CC1)c1cc(CCCl)n(Cc2ccnc(C(F)(F)F)c2)n1 , what Pigweed plant response rating (0 to 100 scale) is on record?
A: 100

Q: For the compound CCCc1cc(C(=O)NC(C)C)nn1Cc1ccnc(C(F)(F)F)c1 , what Pigweed plant response rating (0 to 100 scale) is on record?
A: 0

Q: For the compound CCONC(=O)c1cc(CC)n(Cc2cc(C(F)(F)F)nn2C(C)C)n1 , what Pigweed plant response rating (0 to 100 scale) is on record?
A: 20

###

- Test system: sedge, umbrella
- protocol: Test C flooded paddy test
- Format: in vivo, Cyperus difformis
- setup_conditions: Flood, 62 g ai/ha; scale 0 to 100 (0 no effect, 100 complete control)
# Plant response rating, Sedge, Umbrella values compiled below
Quick one: just the number, no unit, thanks!

Sample records with Plant response rating, Sedge, Umbrella:
[
  {
    "smiles_str": "Cc1cc(C(=O)NCC(F)(F)F)nn1Cc1cccc(OC(F)(F)F)c1",
    "Plant response rating, Sedge, Umbrella": 50
  },
  {
    "smiles_str": "CCCc1cc(C(=O)NCC)nn1Cc1cccc(OC(F)(F)F)c1",
    "Plant response rating, Sedge, Umbrella": 30
  },
  {
    "smiles_str": "CCCNC(=O)c1cc(CC)n(Cc2cccc(C(F)(F)F)c2)n1",
    "Plant response rating, Sedge, Umbrella": 85
  },
  {
    "smiles_str": "CCc1cc(C(=O)NC)nn1Cc1ccnc(C(F)(F)F)c1",
    "Plant response rating, Sedge, Umbrella": 60
  },
  {
    "smiles_str": "CCCNC(=O)c1cc(CCF)n(Cc2ccnc(C(F)(F)F)c2)n1",
    "Plant response rating, Sedge, Umbrella": 75
  }
]

Please examine the following record next.
Q: Give recorded Plant response rating, Sedge, Umbrella with sedge, umbrella for the following molecule: CCc1cc(C(=O)NOC(C)C)nn1Cc1cccc(OC(F)(F)F)c1
A: 75

###

- Tested on: foxtail, giant
- protocol: Test C postemergence
- Format: in vivo, Setaria faberii
- setup_conditions: postemergence, 62 g ai/ha; scale 0 to 100
measurement_name: Foxtail, Giant plant response rating
Quick one: just the number, no unit, thanks!

Q: For the compound CCc1cc(C(=O)NC2CC2)nn1Cc1ccnc(Br)c1 , what Foxtail, Giant plant response rating is on record?
A: 5

Q: For the compound CCCc1cc(C(=O)NC2CC2)nn1Cc1cc(C(F)(F)F)nn1C , what Foxtail, Giant plant response rating is on record?
A: 10

###

- Tested on: ducksalad
- protocol: Test B flood
- Assay type: in vivo, Heteranthera limosa
- setup_conditions: 250 g ai/ha, visual rating on 0 to 100 scale (0 no effect, 100 complete control), 13 to 15 days
measurement_name: Plant response rating, Ducksalad
Quick one: just the number, no unit, thanks!

[
  {
    "compound": "CCc1cc(C(=O)NOC(C)C)nn1Cc1ccnc(OC(F)F)c1 [Compound 126]",
    "Plant response rating, Ducksalad": 95
  },
  {
    "compound": "CCCNC(=O)c1cc(Br)n(Cc2cccc(C(F)(F)F)c2)n1 [Compound 159]",
    "Plant response rating, Ducksalad": 0
  },
  {
    "compound": "CCCNC(=O)c1cc(CC)n(Cc2cccc(C(F)(F)F)n2)n1 [Compound 88]",
    "Plant response rating, Ducksalad": 0
  },
  {
    "compound": "CCc1cc(C(=O)NC2CC2)nn1Cc1cc(OC(F)F)nn1C [Compound 211]",
    "Plant response rating, Ducksalad": 0
  },
  {
    "compound": "CCCc1cc(-c2ccc(C(F)(F)F)cc2)nn1Cc1ccnc(C(F)(F)F)c1 [Compound 113]",
    "Plant response rating, Ducksalad": 60
  }
]

Q: For the compound CCc1cc(C(=O)NCC(F)(F)F)nn1Cc1nc(C(F)(F)F)no1 [Compound 184] , what Plant response rating, Ducksalad is on record?
A: 0

Q: For the compound CCc1cc(C(=O)NCC(F)(F)F)nn1Cc1nc(C(F)(F)F)nn1C [Compound 107] , what Plant response rating, Ducksalad is on record?
A: 70

###

# Barnyardgrass plant response rating values compiled below
- Test system: barnyardgrass
- protocol: Test A postemergence
- Assay type: in vivo, Echinochloa crus-galli
- setup_conditions: postemergence, 125 g ai/ha, about 10 days, visual rating on 0 to 100 scale (0 no effect, 100 complete control)
Quick one: just the number, no unit, thanks!

Sample records with Barnyardgrass plant response rating:
[
  {
    "compound": "CCCCNC(=O)c1cc(I)n(Cc2cccc(C(F)(F)F)c2)n1 [Compound 182]",
    "experimental_result": 20
  },
  {
    "compound": "CCCc1cc(C(=O)NC(C)C)nn1Cc1cc(C(F)(F)F)nn1C [Compound 201]",
    "experimental_result": 80
  },
  {
    "compound": "CCCNC(=O)c1cc(OCC)n(Cc2ccnc(OC(F)F)c2)n1 [Compound 136]",
    "experimental_result": 70
  }
]

Q: For the compound CCOc1cc(C(=O)NCC(F)(F)F)nn1Cc1cc(C(F)(F)F)nn1C [Compound 140] , what Barnyardgrass plant response rating is on record?
A: 70

Q: For the compound O=C(NC1CC1)c1cc(CCCl)n(Cc2ccnc(C(F)(F)F)c2)n1 [Compound 144] , what Barnyardgrass plant response rating is on record?
A: 70

Q: For the compound CCONC(=O)c1cc(CC)n(Cc2ccnc(OC(F)F)c2)n1 [Compound 131] , what Barnyardgrass plant response rating is on record?
A: 80

Q: For the compound CCc1cc(C(=O)NCC(F)(F)F)nn1Cc1cc(C(F)(F)F)no1 [Compound 123] , what Barnyardgrass plant response rating is on record?
A: 0

Q: For the compound CCCNC(=O)c1cc(CC)n(Cc2cc(C(F)(F)F)nn2CC)n1 [Compound 117] , what Barnyardgrass plant response rating is on record?
A: 40

Q: For the compound CCCNC(=O)c1cc(OCC)n(Cc2ccnc(C(F)(F)F)c2)n1 [Compound 187] , what Barnyardgrass plant response rating is on record?
A: 90

Q: For the compound CCc1cc(C(=O)NC)nn1Cc1ccnc(C(F)(F)F)c1 [Compound 204] , what Barnyardgrass plant response rating is on record?
A: 10
